Subject of test: Phospholipase D1 (Homo sapiens) (UniProt Q13393)
Sequence (Q13393 whole entry, looked up): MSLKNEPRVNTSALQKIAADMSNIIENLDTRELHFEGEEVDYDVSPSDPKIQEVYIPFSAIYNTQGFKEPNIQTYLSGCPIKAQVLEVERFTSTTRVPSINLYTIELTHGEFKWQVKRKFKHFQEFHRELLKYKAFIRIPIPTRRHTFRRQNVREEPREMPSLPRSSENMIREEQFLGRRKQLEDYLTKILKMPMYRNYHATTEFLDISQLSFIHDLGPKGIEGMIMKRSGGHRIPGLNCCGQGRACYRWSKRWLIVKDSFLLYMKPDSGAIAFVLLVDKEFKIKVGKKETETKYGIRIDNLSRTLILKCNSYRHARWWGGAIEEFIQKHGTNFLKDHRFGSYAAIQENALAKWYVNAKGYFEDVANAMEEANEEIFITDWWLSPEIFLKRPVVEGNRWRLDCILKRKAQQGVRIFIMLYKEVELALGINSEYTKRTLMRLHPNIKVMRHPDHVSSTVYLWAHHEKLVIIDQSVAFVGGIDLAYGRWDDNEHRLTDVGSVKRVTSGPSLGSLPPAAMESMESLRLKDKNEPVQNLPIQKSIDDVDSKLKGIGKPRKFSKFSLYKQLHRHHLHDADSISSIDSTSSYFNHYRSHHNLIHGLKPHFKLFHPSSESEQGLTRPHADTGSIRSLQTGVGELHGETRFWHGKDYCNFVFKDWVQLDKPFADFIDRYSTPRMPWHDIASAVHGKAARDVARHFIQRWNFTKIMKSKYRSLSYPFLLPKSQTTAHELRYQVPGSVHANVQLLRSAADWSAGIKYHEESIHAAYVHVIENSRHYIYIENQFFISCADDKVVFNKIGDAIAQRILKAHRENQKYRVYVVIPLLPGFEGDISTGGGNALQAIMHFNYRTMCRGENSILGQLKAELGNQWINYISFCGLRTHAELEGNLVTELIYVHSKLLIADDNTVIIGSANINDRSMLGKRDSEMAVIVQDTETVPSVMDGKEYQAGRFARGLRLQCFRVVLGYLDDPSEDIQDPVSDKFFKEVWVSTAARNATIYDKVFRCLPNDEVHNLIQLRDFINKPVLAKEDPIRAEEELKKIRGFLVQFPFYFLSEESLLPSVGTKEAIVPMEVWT
Assay method text: cellular phospholipase D1 activity inhibition – cell-based (AID 743388)
Recorded conditions: Calu-1 cells, PMA-stimulated, PtdBuOH-d9 by mass spectrometry, 30 min; at 20 µM; stronger effect = higher value
Mark y for reported inhibition of 20% or greater; mark n for anything smaller.

Worked examples, 5 molecules total:
> print(dat)
                                   molecule  label.value
1  O=C(NCCN1CCC2(CC1)C(=O)NCN2c1cncc(F)c1)c1ccc2ccccc2c1            n
2  O=C(NCCN1CCC2(CC1)C(=O)NCN2Cc1cccnc1)c1cccc(Cl)c1            n
3  O=C(NCCN1CCC2(CC1)C(=O)NCN2c1cccnc1)c1ccc(F)c(F)c1            n
4  O=C(NCCN1CCC2(CC1)C(=O)NCN2Cc1cccnc1)[C@@H]1C[C@H]1c1ccccc1            y
5  O=C(NCCN1CCC2(CC1)C(=O)NCN2c1ccnc(F)c1)c1ccc2ccccc2c1            n

Please check the record O=C(NCCN1C=CC2(CC1)C(=O)NCN2Cc1cccnc1)c1cccc2nsnc12 (stereo not given) and state if its inhibition is at or above 20%.
n

Could you verify whether the entry `O=C(NCCN1CCC2(CC1)C(=O)NCN2Cc1cccnc1)c1ccc2cc(F)ccc2c1` shows inhibition of no less than 20%?
n

Quick check, inhibition >= 20%? `O=C(NCCN1CCC2(CC1)C(=O)NCN2Cc1cccc2ccccc12)c1ccc2ccccc2c1`
y

hey, is inhibition for this one >= 20%? `O=C(NCCN1CCC2(CC1)C(=O)NCN2Cc1cccnc1)c1ccc2c(c1)C(=O)NC2=O`
n

Check this molecule for inhibition at or above 20%: `O=C(NCCN1CCC2(CC1)C(=O)NCN2Cc1ccccc1Cl)c1ccc2ccccc2c1`
y

Item `O=C(NCCN1CCC2(CC1)C(=O)NCN2Cc1cccnc1)c1c[nH]c2ccccc12` with inhibition of 20% or above?
y
